List of abundance fitness values.
B1: Far upstream element-binding protein 3, residues 75 to 150; numbered along this chain, Q96I24 (parent)
chain: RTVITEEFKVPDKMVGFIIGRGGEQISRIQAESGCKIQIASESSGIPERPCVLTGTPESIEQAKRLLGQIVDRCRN

variants of: B1; test: abundance fitness (aPCA) (normalised: wild type 0, dead -1); higher = more abundant; growth selection in yeast, the domain comes from the species named; settings: Homo sapiens

[[record]]
seqtext = "RTVITEEFKVSDKMVGFIIGRGGEQISRIQAESGCKIQIASESSGIPERPCVLTGTPESIEQAKRLLGQIVDRCRN"
measuredvalue = -0.182

[[record]]
seqtext = "RTVITEEFKVPDKMVGFIIGRGGEQIDRIQAESGCKIQIASESSGIPERPCVLTGTPESIEQAKRLLGQIVDRCRN"
measuredvalue = -0.084

[[record]]
seqtext = "RTVITEEFKVPDKMVGFIIGRGGEQISRIQAESGCKIQIASESSGIPERPCVLTGTPASIEQAKRLLGQIVDRCRN"
measuredvalue = -0.025

[[record]]
seqtext = "RTVITEEFKVPDKMVGFIIGRGGEQISRIQAESGCKIQIASESSGIPERPCVLTGTPEIIEQAKRLLGQIVDRCRN"
measuredvalue = -0.621

[[record]]
seqtext = "RTVITEEFKVPDKMVGFIIGRGGEQISRIQAESGCKIQIASESYGIPERPCVLTGTPESIEQAKRLLGQIVDRCRN"
measuredvalue = -0.086

[[record]]
seqtext = "RTVITEEFKVPDKPVGFIIGRGGEQISRIQAESGCKIQIASESSGIPERPCVLTGTPESIEQAKRLLGQIVDRCRN"
measuredvalue = -0.451


**Query** Value lookup for abundance fitness; key = RTVITEEFKVPDKMVGFIIGRGGEQASRIQAESGCKIQIASESSGIPERPCVLTGTPESIEQAKRLLGQIVDRCRN
**Result** -0.192

**Query** Value lookup for abundance fitness; key = RTVITEEFKVPDKMVGFIIGRGGEQISRIQAESGCKIQIASESSGIPERPCVLTGTPESIEQAKRLPGQIVDRCRN
**Result** -0.649

**Query** Value lookup for abundance fitness; key = RTVITEEFKVPDKMVGFIIGRGVEQISRIQAESGCKIQIASESSGIPERPCVLTGTPESIEQAKRLLGQIVDRCRN
**Result** -0.193

**Query** Value lookup for abundance fitness; key = RTVITEEFKVPDKMVGFIIGRGGEQISRIQAESGCKIMIASESSGIPERPCVLTGTPESIEQAKRLLGQIVDRCRN
**Result** -0.101

**Query** Value lookup for abundance fitness; key = RTVITEEFKVPDKMVGFIIGRGGEQISRKQAESGCKIQIASESSGIPERPCVLTGTPESIEQAKRLLGQIVDRCRN
**Result** -0.676

**Query** Value lookup for abundance fitness; key = RTVITEEFKVPDKMVGFIIGRGGEQISRIQAESGCKIQIASESSGIPERPCVLTGTPESIEQAKRLLGQIWDRCRN
**Result** -0.175

**Query** Value lookup for abundance fitness; key = RTVITEEFKVPDKMVGFIIGRGGEQISRIQAESGCKIQIASESSGIPERPCVLTGTPESIEQWKRLLGQIVDRCRN
**Result** -1.25

**Query** Value lookup for abundance fitness; key = RTVITEEFKVPDKMVGFIIGRGGEQISRIQAESGCKIQIASESSGIPERPCQLTGTPESIEQAKRLLGQIVDRCRN
**Result** 0.043

**Query** Value lookup for abundance fitness; key = RTVITGEFKVPDKMVGFIIGRGGEQISRIQAESGCKIQIASESSGIPERPCVLTGTPESIEQAKRLLGQIVDRCRN
**Result** -0.19

**Query** Value lookup for abundance fitness; key = RTVITEEFKVPDKMVGFIIGRGGEQISRIQAESGCKIQIASESSGIPERPCVLTGTPESIEQAKRLLGQIVDRCMN
**Result** 0.009

**Query** Value lookup for abundance fitness; key = RTVITEEFKVPDKMVGFIIGRGGEQISRIQAESGCKIQIASHSSGIPERPCVLTGTPESIEQAKRLLGQIVDRCRN
**Result** 0.01

**Query** Value lookup for abundance fitness; key = RTVITEEFKVPDKMVGFIIGRGGEQISRIQAESGKKIQIASESSGIPERPCVLTGTPESIEQAKRLLGQIVDRCRN
**Result** -0.608

**Query** Value lookup for abundance fitness; key = RTVITEEFKVPDKMVGFIIGRGGEQISRIQAESGCKIQIASESSGIPERPCVDTGTPESIEQAKRLLGQIVDRCRN
**Result** -0.96

**Query** Value lookup for abundance fitness; key = RTVITEEFKVPDKMVGFIIGRGGEQISRIQAESGCKIQIASESSDIPERPCVLTGTPESIEQAKRLLGQIVDRCRN
**Result** -0.011

**Query** Value lookup for abundance fitness; key = RTVITEEFKVPDKMLGFIIGRGGEQISRIQAESGCKIQIASESSGIPERPCVLTGTPESIEQAKRLLGQIVDRCRN
**Result** -0.061

**Query** Value lookup for abundance fitness; key = RTVITEEFKVPDKMVGFIIGRGGEQISRIQAESGCKIQIASESSGIPERPCVLTNTPESIEQAKRLLGQIVDRCRN
**Result** -0.989

**Query** Value lookup for abundance fitness; key = RTVITEEFKVPDKMVGFIIGRGGEQISRIQAESGCKIQIASESSGIPERPCVLTGTPESIEQAKRLLGQIYDRCRN
**Result** -0.047

**Query** Value lookup for abundance fitness; key = RTVITEEFKVPDKMVGFIIGRGGEQISRIQAESGCKIQIASESSGIPERPCVLTGTPESIEQAKRLLGQIIDRCRN
**Result** -0.018

**Query** Value lookup for abundance fitness; key = RTVITEEFKVPDKMVGFIIGRGGEQISRIQAESGCKIQIASESSGIPERPCVLRGTPESIEQAKRLLGQIVDRCRN
**Result** -0.018
